assay: Induction of human SERT-dependent cytotoxicity in SERT expressing HEK293 cells after 48 hrs by neutral red assay
pEC50: −log10 of the molar value.
parameter measured: pEC50

molecule="CCSc1ccc(CC(CC)NC)cc1 (stereo unspecified)" parameter_measured=pEC50 reported_value="< 4.00"
